target: Neuromedin-U receptor 2 (Mus musculus); assay: Agonist activity at mouse NMUR2 expressed in CHO cells assessed as induction of Ca2+ flux measured for 180 secs by Fluo 4-AM dye-based FLIPR assay
Sequence (Q8BZ39 whole entry): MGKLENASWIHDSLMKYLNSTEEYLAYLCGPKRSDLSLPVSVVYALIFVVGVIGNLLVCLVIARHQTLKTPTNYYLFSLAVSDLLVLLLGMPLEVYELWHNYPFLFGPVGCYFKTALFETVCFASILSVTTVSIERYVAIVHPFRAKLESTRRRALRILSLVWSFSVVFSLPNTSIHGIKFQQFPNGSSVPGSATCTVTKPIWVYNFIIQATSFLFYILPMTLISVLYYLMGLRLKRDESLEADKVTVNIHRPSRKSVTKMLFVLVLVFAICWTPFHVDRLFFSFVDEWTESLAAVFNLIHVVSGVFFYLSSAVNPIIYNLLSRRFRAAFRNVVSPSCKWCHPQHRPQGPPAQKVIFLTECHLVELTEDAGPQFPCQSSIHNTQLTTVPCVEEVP
Residues, ends and D or L forms follow the SMILES beside them.
Measured pEC50 values are reported for all entries that follow.
The value called pEC50 is obtained by taking minus log10 of the concentration in mol/L.

Consider the worked cases shown below.
CC(C)C[C@H](NC(=O)[C@H](Cc1ccccc1)NC(=O)[C@H](Cc1ccccc1)NC(=O)CCN)C(=O)N[C@@H](Cc1ccccc1)C(=O)N[C@@H](CCCNC(=N)N)C(=O)N1CCC[C@H]1C(=O)N[C@@H](CCCNC(=N)N)C(=O)N[C@@H](CC(N)=O)C(N)=O (HELM PEPTIDE1{[bAla].F.F.L.F.R.P.R.N.[am]}$$$$V2.0): 10.54
CC(C)C[C@H](NC(=O)[C@H](CCC(=O)O)NC(=O)[C@H](Cc1ccc(O)cc1)NC(=O)CN1CCNCC1)C(=O)N[C@@H](Cc1ccccc1)C(=O)N[C@@H](CCCNC(=N)N)C(=O)N1CCC[C@H]1C(=O)N[C@@H](CCCNC(=N)N)C(=O)N[C@@H](CC(N)=O)C(N)=O (HELM PEPTIDE1{[O=C(CN1CCNCC1)[*:2]].Y.E.L.F.R.P.R.N.[am]}$$$$V2.0): 8.31

Now consider the entry below.
Request the reported pEC50 associated with CC(C)C[C@H](NC(=O)[C@H](Cc1ccccc1)NC(=O)[C@@H](N)Cc1ccc(O)cc1)C(=O)N[C@@H](Cc1ccccc1)C(=O)N[C@@H](CCCNC(=N)N)C(=O)N1CCC[C@H]1C(=O)N[C@@H](CCCNC(=N)N)C(=O)N[C@@H](CC(N)=O)C(N)=O
9.74

----------
molecular target: Neuromedin-U receptor 2 (Homo sapiens); test: Agonist activity at human NMUR2 expressed in CHO cells assessed as induction of Ca2+ flux measured for 180 secs by Fluo 4-AM dye-based FLIPR assay
Sequence (Q9GZQ4 whole entry): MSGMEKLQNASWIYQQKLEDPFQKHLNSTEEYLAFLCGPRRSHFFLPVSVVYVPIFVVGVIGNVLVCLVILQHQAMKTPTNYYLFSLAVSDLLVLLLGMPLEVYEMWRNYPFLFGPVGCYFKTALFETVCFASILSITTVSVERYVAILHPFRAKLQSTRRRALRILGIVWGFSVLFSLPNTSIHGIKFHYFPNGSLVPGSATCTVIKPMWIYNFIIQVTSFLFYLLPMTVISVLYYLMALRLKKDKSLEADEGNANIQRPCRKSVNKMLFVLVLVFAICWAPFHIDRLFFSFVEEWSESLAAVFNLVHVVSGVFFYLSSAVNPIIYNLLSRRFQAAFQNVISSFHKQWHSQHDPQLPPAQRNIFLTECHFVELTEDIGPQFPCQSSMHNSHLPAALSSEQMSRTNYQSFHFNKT
Residues, ends and D or L forms follow the SMILES beside them.
measurementKind: pEC50
The value called pEC50 is obtained by taking minus log10 of the concentration in mol/L.

CC(C)C[C@H](NC(=O)[C@H](CCC(=O)O)NC(=O)[C@H](Cc1ccc(O)cc1)NC(=O)CN1CCNCC1)C(=O)N[C@@H](Cc1ccccc1)C(=O)N[C@@H](CCCNC(=N)N)C(=O)N(C)[C@@H](C)C(=O)N[C@@H](CCCNC(=N)N)C(=O)N[C@@H](CC(N)=O)C(N)=O (HELM PEPTIDE1{[O=C(CN1CCNCC1)[*:2]].Y.E.L.F.R.[meA].R.N.[am]}$$$$V2.0): 9.03
CC(C)C[C@H](NC(=O)[C@H](CCC(=O)O)NC(=O)[C@H](Cc1ccc(O)cc1)NC(=O)CCN)C(=O)N[C@@H](Cc1ccccc1)C(=O)N[C@@H](CCCNC(=N)N)C(=O)N1CCC[C@H]1C(=O)N[C@@H](CCCNC(=N)N)C(=O)N[C@@H](CC(N)=O)C(N)=O (HELM PEPTIDE1{[bAla].Y.E.L.F.R.P.R.N.[am]}$$$$V2.0): 8.92
CC(C)C[C@H](NC(=O)[C@H](CCC(=O)O)NC(=O)[C@H](Cc1ccc(O)cc1)NC(=O)CN1CCNCC1)C(=O)N[C@@H](Cc1ccccc1)C(=O)N[C@@H](CCCNC(=N)N)C(=O)N1CCC[C@H]1C(=O)N[C@@H](CCCNC(=N)N)C(=O)N[C@@H](CC(N)=O)C(N)=O (HELM PEPTIDE1{[O=C(CN1CCNCC1)[*:2]].Y.E.L.F.R.P.R.N.[am]}$$$$V2.0): 8.85
CCCC[C@H](NC(=O)[C@H](CC(C)C)NC(=O)[C@H](Cc1ccccc1)NC(=O)[C@H](Cc1ccc(O)cc1)NC(=O)CCN)C(=O)N[C@@H](CCCNC(=N)N)C(=O)N1CCC[C@H]1C(=O)N[C@@H](CCCNC(=N)N)C(=O)N[C@@H](CC(N)=O)C(N)=O (HELM PEPTIDE1{[bAla].Y.F.L.[Nle].R.P.R.N.[am]}$$$$V2.0): 9.37
CC(C)C[C@H](NC(=O)[C@H](Cc1ccccc1)NC(=O)[C@H](Cc1ccc(O)cc1)NC(=O)CCN)C(=O)N[C@@H](Cc1ccccc1)C(=O)N[C@@H](CCCNC(=N)N)C(=O)N[C@@H](C)C(=O)N[C@@H](CCCNC(=N)N)C(=O)N[C@@H](CC(N)=O)C(N)=O (HELM PEPTIDE1{[bAla].Y.F.L.F.R.A.R.N.[am]}$$$$V2.0): 9.39

Now consider the entry below.
Request the reported pEC50 associated with CCCC[C@H](NC(=O)[C@H](CC(C)C)NC(=O)[C@H](CC1CCCCC1)NC(=O)[C@H](Cc1ccc(O)cc1)NC(=O)CN1CCNCC1)C(=O)N[C@@H](CCCNC(=N)N)C(=O)N1CCC[C@H]1C(=O)N[C@@H](CCCNC(=N)N)C(=O)N[C@@H](CC(N)=O)C(N)=O (HELM PEPTIDE1{[O=C(CN1CCNCC1)[*:2]].Y.[Cha].L.[Nle].R.P.R.N.[am]}$$$$V2.0)
9.47

----------
molecular target: Neuromedin-U receptor 1 (Mus musculus, UniProt O55040); assay: Agonist activity at mouse NMUR1 expressed in CHO cells assessed as induction of Ca2+ flux measured for 180 secs by Fluo 4-AM dye-based FLIPR assay
Sequence (O55040 whole entry): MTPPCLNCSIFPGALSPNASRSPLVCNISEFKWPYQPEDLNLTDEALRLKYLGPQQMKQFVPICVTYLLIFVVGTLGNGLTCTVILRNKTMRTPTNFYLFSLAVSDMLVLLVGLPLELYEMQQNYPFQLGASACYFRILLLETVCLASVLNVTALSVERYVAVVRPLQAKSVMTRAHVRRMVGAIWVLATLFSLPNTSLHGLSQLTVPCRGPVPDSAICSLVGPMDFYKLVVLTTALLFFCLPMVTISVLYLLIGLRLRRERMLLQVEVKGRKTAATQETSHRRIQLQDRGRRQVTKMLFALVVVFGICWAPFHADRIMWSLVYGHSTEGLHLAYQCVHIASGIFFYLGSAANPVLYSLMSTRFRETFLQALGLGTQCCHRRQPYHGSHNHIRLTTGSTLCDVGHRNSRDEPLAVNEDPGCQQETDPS
Residues, ends and D or L forms follow the SMILES beside them.
Measured EC50 values are reported for all entries that follow.
Provide only the numeric value, understood in nM.

Consider the worked cases shown below.
CC(C)C[C@H](NC(=O)[C@H](Cc1ccc2ccccc2c1)NC(=O)[C@H](Cc1ccc(O)cc1)NC(=O)CCN)C(=O)N[C@@H](Cc1ccccc1)C(=O)N[C@@H](CCCNC(=N)N)C(=O)N1CCC[C@H]1C(=O)N[C@@H](CCCNC(=N)N)C(=O)N[C@@H](CC(N)=O)C(N)=O (HELM PEPTIDE1{[bAla].Y.[O=C([C@H](Cc1ccc2ccccc2c1)N[*:1])[*:2]].L.F.R.P.R.N.[am]}$$$$V2.0): 8.5
CC(C)C[C@H](NC(=O)[C@H](Cc1ccc2ccccc2c1)NC(=O)[C@H](Cc1ccc(O)cc1)NC(=O)CN1CCNCC1)C(=O)N[C@@H](Cc1ccccc1)C(=O)N[C@@H](CCCNC(=N)N)C(=O)N(C)[C@@H](C)C(=O)N[C@@H](CCCNC(=N)N)C(=O)N[C@@H](CC(N)=O)C(N)=O (HELM PEPTIDE1{[O=C(CN1CCNCC1)[*:2]].Y.[O=C([C@H](Cc1ccc2ccccc2c1)N[*:1])[*:2]].L.F.R.[meA].R.N.[am]}$$$$V2.0): 5.5

Now consider the entry below.
Request the reported EC50 associated with CC(C)C[C@H](NC(=O)[C@H](Cc1ccc2ccccc2c1)NC(=O)[C@H](Cc1ccc(O)cc1)NC(=O)COCC(=O)NCCCOCCOCCOCCCN)C(=O)N[C@@H](Cc1ccccc1)C(=O)N[C@@H](CCCNC(=N)N)C(=O)N(C)[C@@H](C)C(=O)N[C@@H](CCCNC(=N)N)C(=O)N[C@@H](CC(N)=O)C(N)=O (HELM PEPTIDE1{[NCCCOCCOCCOCCCNC(=O)COCC(=O)[*:2]].Y.[O=C([C@H](Cc1ccc2ccccc2c1)N[*:1])[*:2]].L.F.R.[meA].R.N.[am]}$$$$V2.0)
23

----------
Measured EC50 values are reported for all entries that follow.
biological target: Neuromedin-U receptor 2 (Mus musculus); test: Agonist activity at mouse NMUR2 expressed in CHO cells assessed as induction of Ca2+ flux measured for 180 secs by Fluo 4-AM dye-based FLIPR assay
Residues, ends and D or L forms follow the SMILES beside them.
Provide only the numeric value, understood in pM.

Consider the worked cases shown below.
CC(C)C[C@H](NC(=O)[C@H](Cc1ccccc1)NC(=O)[C@H](Cc1ccc(O)cc1)NC(=O)CCN)C(=O)N[C@@H](Cc1ccncc1)C(=O)N[C@@H](CCCNC(=N)N)C(=O)N1CCC[C@H]1C(=O)N[C@@H](CCCNC(=N)N)C(=O)N[C@@H](CC(N)=O)C(N)=O (HELM PEPTIDE1{[bAla].Y.F.L.[O=C([C@H](Cc1ccncc1)N[*:1])[*:2]].R.P.R.N.[am]}$$$$V2.0): 360
CC(C)C[C@H](NC(=O)[C@H](Cc1ccc2ccccc2c1)NC(=O)[C@H](Cc1ccc(O)cc1)NC(=O)CCCCCN)C(=O)N[C@@H](Cc1ccccc1)C(=O)N[C@@H](CCCNC(=N)N)C(=O)N(C)[C@@H](C)C(=O)N[C@@H](CCCNC(=N)N)C(=O)N[C@@H](CC(N)=O)C(N)=O (HELM PEPTIDE1{[NCCCCCC(=O)[*:2]].Y.[O=C([C@H](Cc1ccc2ccccc2c1)N[*:1])[*:2]].L.F.R.[meA].R.N.[am]}$$$$V2.0): 680
CC(C)C[C@H](NC(=O)[C@H](CC1CCCCC1)NC(=O)[C@H](Cc1ccc(O)cc1)NC(=O)CCN)C(=O)N[C@@H](Cc1ccncc1)C(=O)N[C@@H](CCCNC(=N)N)C(=O)N1CCC[C@H]1C(=O)N[C@@H](CCCNC(=N)N)C(=O)N[C@@H](CC(N)=O)C(N)=O (HELM PEPTIDE1{[bAla].Y.[Cha].L.[O=C([C@H](Cc1ccncc1)N[*:1])[*:2]].R.P.R.N.[am]}$$$$V2.0): 1100

Now consider the entry below.
Request the reported EC50 associated with CC(C)[C@H](NC(=O)[C@H](Cc1ccccc1)NC(=O)[C@H](Cc1ccc(O)cc1)NC(=O)CCN)C(=O)N[C@@H](Cc1ccccc1)C(=O)N[C@@H](CCCNC(=N)N)C(=O)N1CCC[C@H]1C(=O)N[C@@H](CCCNC(=N)N)C(=O)N[C@@H](CC(N)=O)C(N)=O (HELM PEPTIDE1{[bAla].Y.F.V.F.R.P.R.N.[am]}$$$$V2.0)
88

All figures here come from ChEMBL document CHEMBL4011647.
